system: HEK-293T; assay: Multiplex assay against HEK293T; assay type: toxicity, cell-based; details: human, 12 h, 1 µM, compound concentration 1 uM, replicate 1
Exercise: state measured Population Healthy Nuclei (%) for each of the molecules provided.
Report the figure along with its unit, number first.

Example entries begin here.
CCc1nn(CCCN2CCN(c3cccc(Cl)c3)CC2)c(=O)n1CCOc1ccccc1.Cl [NEFAZODONE HYDROCHLORIDE] = 45%
CC(C)OC(=O)N1CCC(Oc2ncnc3c2cnn3-c2ccc(S(C)(=O)=O)cc2F)CC1 = 35%
C=CC(=O)Nc1ccc2[nH]c(=O)n(C3CCN(Cc4ccc(-c5nc6cc[nH]c(=O)c6cc5-c5ccccc5)cc4)CC3)c2c1 [Borussertib] = 66%
Cc1c[nH]c2nccc(Oc3c(F)cc(Nc4cc(Cl)nc(N)n4)cc3F)c12 [BAY-549] = 32%
Cc1cccc(CN2CCN(C(c3ccccc3)c3ccc(Cl)cc3)CC2)c1.Cl.Cl (stereo not drawn) = 25%

Give one value of Population Healthy Nuclei (%) per listed molecule.
1. C=CC(=O)Nc1cccc(Sc2nc(Nc3ccc(N4CCN(C)CC4)cc3)ncc2Cl)c1
2. CC(C)c1noc(N2CCC(COc3ccc(-c4ccc(S(C)(=O)=O)cc4)nc3)CC2)n1 [GSK-1292263]
3. CC(C)Oc1ccccc1C(=O)Nc1ccccc1C(=O)Nc1cccc(S(=O)(=O)C(F)(F)F)c1

["14%", "31%", "41%"]

---

test system: HEK-293T; test: Multiplex assay against HEK293T; format: toxicity, cell-based; details: human, 48 h, 1 µM, compound concentration 1 uM, replicate 2
Exercise: state measured Population Hoechst High Intensity Objects (%) for each of the molecules provided.

COc1ccc(-c2ccc3ncc4c(c3c2)n(-c2ccc(N3CCNCC3)c(C(F)(F)F)c2)c(=O)n4C)cn1.O=C(O)/C=C\C(=O)O = 11%
CNC(=O)Nc1ccc(-c2nc(N3CC4CCC(C3)O4)c3cnn(C4CCC5(CC4)OCCO5)c3n2)cc1 = 11%
CC(C)c1noc(N2CCC(COc3ccc(-c4ccc(S(C)(=O)=O)cc4)nc3)CC2)n1 = 4%
Cc1ccc2c(c1)c1c(n2CCc2ccc(C)nc2)CCN(C)C1 [LATREPIRDINE] = 3%
COc1cc2ncn(-c3cc(OCc4ccccc4C(F)(F)F)c(C(N)=O)s3)c2cc1OC [GW843682X] = 2%

Give one value of Population Hoechst High Intensity Objects (%) per listed molecule.
1. CCc1ccc(OCc2ccccc2C(=O)Nc2ccc3nc(C)cc(N)c3c2)cc1.Cl
2. CCCSc1nc(N[C@@H]2C[C@H]2c2ccc(F)c(F)c2)c2nnn([C@@H]3C[C@H](OCCO)[C@@H](O)[C@H]3O)c2n1
3. O=C(c1cc2c(cc1F)OC(c1ccc(F)cc1)(c1ccc(Cl)cc1Cl)O2)N1CCOCC1 (stereo not drawn)

11%
4%
3%

---

system: U2OS; test: Multiplex assay against U2OS; format: toxicity, cell-based; settings: human, 12 h, 1 µM, compound concentration 1 uM, replicate 1
Exercise: state measured Population Mitochondria Different-Phenotype (%) for each of the compounds provided.

Example entries begin here.
CC(C)c1noc(N2CCC(COc3ccc(-c4ccc(S(C)(=O)=O)cc4)nc3)CC2)n1 = 10%
COc1ccccc1CN[C@H]1C2CCN(CC2)[C@H]1C(c1ccccc1)c1ccccc1 = 20%
CCc1nn(CCCN2CCN(c3cccc(Cl)c3)CC2)c(=O)n1CCOc1ccccc1.Cl [NEFAZODONE HYDROCHLORIDE] = 27%

With those in mind, consider the next compound.
Query (compound): CCc1ccc(OCc2ccccc2C(=O)Nc2ccc3nc(C)cc(N)c3c2)cc1.Cl ; field requested: Population Mitochondria Different-Phenotype (%) 95%

---

Exercise: state measured Population Fragmented Nuclei (%) for each of the compounds provided.
test system: HEK-293T; assay: Multiplex assay against HEK293T; type: toxicity, cell-based; details: human, 48 h, 10 µM, compound concentration 10 uM, replicate 2
Numbers only, in %.

Example entries begin here.
CCOC(=O)Nc1cc(-c2ccc(C)c(NS(C)(=O)=O)c2)nn2c(C)nnc12 = 9
CNC(=O)Nc1ccc(-c2nc(N3CC4CCC(C3)O4)c3cnn(C4CCC5(CC4)OCCO5)c3n2)cc1 = 8
CCCSc1nc(N[C@@H]2C[C@H]2c2ccc(F)c(F)c2)c2nnn([C@@H]3C[C@H](OCCO)[C@@H](O)[C@H]3O)c2n1 = 7
C[C@]12CC[C@@H]3c4ccc(O)cc4CC[C@H]3[C@@H]1CC[C@@H]2O = 3
COC(=O)C1=C(C)NC(C)=C(C(=O)OCCCN2CCC(c3ccccc3)(c3ccccc3)CC2)[C@H]1c1cccc([N+](=O)[O-])c1 = 11

Give one value of Population Fragmented Nuclei (%) per listed compound.
1. CC(C)Oc1ccccc1C(=O)Nc1ccccc1C(=O)Nc1cccc(S(=O)(=O)C(F)(F)F)c1
2. CCc1nn(CCCN2CCN(c3cccc(Cl)c3)CC2)c(=O)n1CCOc1ccccc1.Cl [NEFAZODONE HYDROCHLORIDE]

1. 16
2. 6

---

test system: U2OS; assay: Multiplex assay against U2OS; assay type: toxicity, cell-based; conditions: human, 24 h, 1 µM, compound concentration 1 uM, replicate 2
PROPERTY MEASURED: Population Tubulin-Different-Phenotype (%)
One number for each entry, in %.

Example entries begin here.
Cc1cccc(CN2CCN(C(c3ccccc3)c3ccc(Cl)cc3)CC2)c1.Cl.Cl (configuration not stated) = 22
CC1=C(C(=O)Nc2cc3cn[nH]c3cc2F)C(c2ccc(C(F)(F)F)cc2)CC(=O)N1 (configuration not stated) = 16
CNC(=O)Nc1ccc(-c2nc(N3CC4CCC(C3)O4)c3cnn(C4CCC5(CC4)OCCO5)c3n2)cc1 = 23
CC(C)NC(=O)N1CC[C@H](NC2=Nc3cc(F)ccc3N(CC(F)F)c3ccc(Cl)cc32)C1 = 9
COc1cc(Nc2nccc(-c3cnn4nc(OC)ccc34)n2)cc(C(F)(F)F)c1 = 19
CNC(=O)Nc1ccc2c(c1)[C@@]1(CC2)OC(=O)N(CC(=O)N(Cc2ccc(F)cc2)[C@@H](C)C(F)(F)F)C1=O [A-486] = 27
O=C(c1cc2c(cc1F)OC(c1ccc(F)cc1)(c1ccc(Cl)cc1Cl)O2)N1CCOCC1 (configuration not stated) = 21
CC(C)Oc1ccccc1C(=O)Nc1ccccc1C(=O)Nc1cccc(S(=O)(=O)C(F)(F)F)c1 = 35
CCc1ccc(OCc2ccccc2C(=O)Nc2ccc3nc(C)cc(N)c3c2)cc1.Cl = 63
C=CC(=O)Nc1cccc(Sc2nc(Nc3ccc(N4CCN(C)CC4)cc3)ncc2Cl)c1 = 100

Give one value of Population Tubulin-Different-Phenotype (%) per listed molecule.
1. Cl.O=C(O)c1cc(-c2ccc(C3CCNCC3)cc2)c2ccc(-c3ccc(C(F)(F)F)cc3)cc2c1
2. CCc1nn(CCCN2CCN(c3cccc(Cl)c3)CC2)c(=O)n1CCOc1ccccc1.Cl [NEFAZODONE HYDROCHLORIDE]

1: 30; 2: 33

---

test system: U2OS; experiment: Multiplex assay against U2OS; assay type: toxicity, cell-based; settings: human, 12 h, 1 µM, compound concentration 1 uM, replicate 2
PROPERTY MEASURED: Population Normal (%)
Give bare numbers, in %.

CNC(=O)Nc1ccc2c(c1)[C@@]1(CC2)OC(=O)N(CC(=O)N(Cc2ccc(F)cc2)[C@@H](C)C(F)(F)F)C1=O = 88
CN1CCN(Cc2ccc(Nc3ncc(Cl)c(Nc4ccccc4S(=O)(=O)N(C)C)n3)cc2)CC1 = 89
CC(C)OC(=O)N1CCC(Oc2ncnc3c2cnn3-c2ccc(S(C)(=O)=O)cc2F)CC1 = 92

Give one value of Population Normal (%) per listed molecule.
1. CCOC(=O)Nc1cc(-c2ccc(C)c(NS(C)(=O)=O)c2)nn2c(C)nnc12
2. Cc1nc(N2CC[C@H](O)C2)ncc1-c1cc(C(F)(F)F)cc2[nH]ncc12

1. 88
2. 88

Give one value of Population Normal (%) per listed molecule.
1. COc1ccccc1CN[C@H]1C2CCN(CC2)[C@H]1C(c1ccccc1)c1ccccc1
2. CCc1nn(CCCN2CCN(c3cccc(Cl)c3)CC2)c(=O)n1CCOc1ccccc1.Cl [NEFAZODONE HYDROCHLORIDE]
3. Cc1cccc(CN2CCN(C(c3ccccc3)c3ccc(Cl)cc3)CC2)c1.Cl.Cl (stereo not drawn)

[100, 93, 91]

---

test system: Fibroblast; assay: Multiplex assay against human fibroblast; type: toxicity, cell-based; details: 24 h, 1 µM, compound concentration 1 uM, replicate 1
PROPERTY MEASURED: Total Cell Count

Example entries begin here.
COc1ccccc1CN[C@H]1C2CCN(CC2)[C@H]1C(c1ccccc1)c1ccccc1 [CP-96345] = 161
Cc1ccccc1C(c1ccccc1C)N1C2CCC1CC(O)(c1ccccc1)C2 (centres undefined) = 107
CC1=C(C(=O)Nc2cc3cn[nH]c3cc2F)C(c2ccc(C(F)(F)F)cc2)CC(=O)N1 (centres undefined) = 127
CCc1nn(CCCN2CCN(c3cccc(Cl)c3)CC2)c(=O)n1CCOc1ccccc1.Cl [NEFAZODONE HYDROCHLORIDE] = 175
Cc1cccc(CN2CCN(C(c3ccccc3)c3ccc(Cl)cc3)CC2)c1.Cl.Cl (centres undefined) = 125
COc1cc(Nc2nccc(-c3cnn4nc(OC)ccc34)n2)cc(C(F)(F)F)c1 = 92
C=CC(=O)Nc1ccc2[nH]c(=O)n(C3CCN(Cc4ccc(-c5nc6cc[nH]c(=O)c6cc5-c5ccccc5)cc4)CC3)c2c1 [Borussertib] = 170
CC(C)OC(=O)N1CCC(Oc2ncnc3c2cnn3-c2ccc(S(C)(=O)=O)cc2F)CC1 = 83

Query (compound): O=c1cc(N2CCOCC2)oc2c(-c3cccc4c3sc3ccccc34)cccc12 ; field requested: Total Cell Count 151
